Test system: SK-MEL-2 melanoma
protocolText: NCI-60 one-dose screen, 48 h (100 = growth as untreated, 0 = no growth, -100 = all killed)
runParameters: 10 µM unless noted
Compounds without any hit were thinned out: in the full panel of roughly 83,000, 20% have a hit.
// reported growth for each item listed
# unit: % | format: bare number

Reference set (4 entries):
COC(=O)/C=C/C(=O)c1cc(C)cc(C)c1O; 99.2
COC(OC)C1(c2ccccc2)NC(=O)NC1=O (stereo unspecified); 104
C=C1C(=O)O[C@H]2[C@H]1CC/C(COC(=O)c1ccc(Br)cc1)=C\CC[C@@]1(C)O[C@@H]21; -24.5
COc1cc(C(=O)C[n+]2ccccc2)ccc1OC(C)=O; 102

`CCN(CC)C(=O)C1CCN(C(=O)c2ccccc2)CC1` has a reported growth of 98.3

`O=C(Nc1ccc(-n2ccc3c(NC(=O)c4ccccc4)nccc32)cc1)Nc1ccc(Cl)c(Cl)c1` has a reported growth of -42.4
